# Target entity: Neurogenic locus notch homolog protein 2 (Homo sapiens) (UniProt Q04721)
# Sequence (Q04721 whole entry, looked up): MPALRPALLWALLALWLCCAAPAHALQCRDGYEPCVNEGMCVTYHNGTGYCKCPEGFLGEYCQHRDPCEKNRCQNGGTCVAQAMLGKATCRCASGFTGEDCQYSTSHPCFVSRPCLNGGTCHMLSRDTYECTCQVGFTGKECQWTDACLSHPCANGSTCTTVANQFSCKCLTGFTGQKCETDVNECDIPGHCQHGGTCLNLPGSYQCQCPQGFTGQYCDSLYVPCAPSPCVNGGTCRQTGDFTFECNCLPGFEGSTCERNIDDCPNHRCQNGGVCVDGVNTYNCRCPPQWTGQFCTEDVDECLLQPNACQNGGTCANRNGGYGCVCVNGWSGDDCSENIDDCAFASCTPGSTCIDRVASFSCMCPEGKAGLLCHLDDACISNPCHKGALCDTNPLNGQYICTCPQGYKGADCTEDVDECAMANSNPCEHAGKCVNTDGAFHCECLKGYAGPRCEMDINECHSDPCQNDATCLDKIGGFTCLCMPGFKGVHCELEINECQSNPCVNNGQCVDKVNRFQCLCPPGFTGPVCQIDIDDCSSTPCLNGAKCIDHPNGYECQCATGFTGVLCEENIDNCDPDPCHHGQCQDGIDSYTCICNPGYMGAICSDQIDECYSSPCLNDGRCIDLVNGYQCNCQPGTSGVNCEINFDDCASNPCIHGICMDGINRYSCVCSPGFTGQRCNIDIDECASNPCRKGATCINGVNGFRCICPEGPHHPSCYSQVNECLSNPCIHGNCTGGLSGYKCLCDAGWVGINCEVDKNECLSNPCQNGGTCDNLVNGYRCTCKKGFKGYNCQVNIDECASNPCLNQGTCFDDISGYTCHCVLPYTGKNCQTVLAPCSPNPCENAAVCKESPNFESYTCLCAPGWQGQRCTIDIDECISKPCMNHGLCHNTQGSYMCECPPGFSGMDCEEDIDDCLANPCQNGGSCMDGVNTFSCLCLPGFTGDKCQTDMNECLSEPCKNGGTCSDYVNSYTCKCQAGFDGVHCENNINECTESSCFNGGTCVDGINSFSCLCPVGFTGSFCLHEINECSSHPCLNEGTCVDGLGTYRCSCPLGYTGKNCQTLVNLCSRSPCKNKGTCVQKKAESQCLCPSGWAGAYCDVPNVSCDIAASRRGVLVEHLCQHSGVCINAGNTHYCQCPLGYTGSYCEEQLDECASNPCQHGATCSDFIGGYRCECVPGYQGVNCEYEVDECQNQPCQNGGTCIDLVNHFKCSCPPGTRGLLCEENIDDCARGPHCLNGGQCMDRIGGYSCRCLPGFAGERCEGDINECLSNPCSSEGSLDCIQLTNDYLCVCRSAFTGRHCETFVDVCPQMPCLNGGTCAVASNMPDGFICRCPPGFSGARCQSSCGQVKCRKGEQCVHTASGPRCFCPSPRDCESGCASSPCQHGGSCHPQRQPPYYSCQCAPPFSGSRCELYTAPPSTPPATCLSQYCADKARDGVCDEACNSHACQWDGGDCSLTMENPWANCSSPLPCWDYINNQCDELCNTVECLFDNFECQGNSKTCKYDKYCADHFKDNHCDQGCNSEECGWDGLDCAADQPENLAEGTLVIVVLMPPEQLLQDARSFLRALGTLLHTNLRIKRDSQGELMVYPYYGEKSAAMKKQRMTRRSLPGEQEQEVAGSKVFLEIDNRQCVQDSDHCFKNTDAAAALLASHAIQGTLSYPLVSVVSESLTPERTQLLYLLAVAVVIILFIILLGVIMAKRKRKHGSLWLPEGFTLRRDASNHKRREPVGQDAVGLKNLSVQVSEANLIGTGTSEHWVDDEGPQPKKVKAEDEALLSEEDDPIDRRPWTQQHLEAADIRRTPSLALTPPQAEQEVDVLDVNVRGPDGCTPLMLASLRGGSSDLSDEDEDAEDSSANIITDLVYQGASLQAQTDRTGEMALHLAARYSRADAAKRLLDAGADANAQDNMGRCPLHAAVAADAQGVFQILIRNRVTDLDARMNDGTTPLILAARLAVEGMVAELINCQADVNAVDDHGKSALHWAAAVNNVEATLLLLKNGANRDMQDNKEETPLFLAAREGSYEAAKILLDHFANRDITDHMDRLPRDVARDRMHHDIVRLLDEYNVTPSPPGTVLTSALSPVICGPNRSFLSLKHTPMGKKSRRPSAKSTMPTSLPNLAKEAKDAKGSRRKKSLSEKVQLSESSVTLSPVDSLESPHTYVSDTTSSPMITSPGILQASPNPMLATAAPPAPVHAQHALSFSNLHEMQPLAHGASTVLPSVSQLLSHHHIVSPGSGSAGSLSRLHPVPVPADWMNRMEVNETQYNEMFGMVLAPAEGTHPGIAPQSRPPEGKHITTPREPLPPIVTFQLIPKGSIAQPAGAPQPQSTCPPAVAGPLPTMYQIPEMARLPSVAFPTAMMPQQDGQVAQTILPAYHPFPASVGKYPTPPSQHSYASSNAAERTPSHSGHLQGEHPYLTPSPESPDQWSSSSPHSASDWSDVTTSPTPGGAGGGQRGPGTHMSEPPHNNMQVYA
# Test method notes: Notch2 binders on small-molecule microarrays, primary screen, biochemical, small-molecule microarray, 635 nm fluorescence, stem cell growth factors (AID 1073)
# Reported conditions: Notch2 binding, higher = more signal
Readout type: composite z-score
Answers are plain numbers.

INSERT INTO assay_data (compound_smiles, readout_type, obs_value) VALUES
  ('CCCCC=C[C@@H](NC(=O)c1ccc(C(=O)OC)cc1)c1ccccc1', 'composite z-score', 1.31);

Each of the following entries comes with a recorded value; kindly state composite z-score for each.
1. CO[C@H]1O[C@H](CO)[C@@H](OC(=O)Nc2ccc(Oc3ccccc3)cc2)[C@H](OC(=O)Nc2ccccc2)[C@H]1OC(=O)Nc1ccccc1
2. CCCNC(=O)[C@@]1(c2ccc([N+](=O)[O-])cc2)CC(=O)N(CC23CC4CC(CC(C4)C2)C3)[C@@H]1c1ccc(CO)cc1
3. COCCOC(=O)N1C(=O)[C@@]2(c3cc(C#CCCO)ccc31)[C@H](c1ccccc1OCCO)N1[C@H](c3ccccc3)[C@H](c3ccccc3)OC(=O)[C@H]1[C@@H]2C(=O)N1CCN(c2ncccn2)CC1
4. COC(=O)C(CC#Cc1ccc2c(c1)[C@]1(C(=O)N2)[C@H](c2ccc(OCCO)cc2)N2[C@H](c3ccccc3)[C@H](c3ccccc3)OC(=O)[C@H]2[C@@H]1C(=O)NC[C@H](O)c1ccccc1)C(=O)OC
5. O=C1C[C@]2(c3ccc([N+](=O)[O-])cc3)C(=O)N(CC(F)(F)F)c3cc(CO)ccc3[C@H]2N1CC12CC3CC(CC(C3)C1)C2

Key:
[1.48, 0.143, 1.55, 0.694, -0.284]
